Reference for the values: ChEMBL document CHEMBL1127801

- System: Mus musculus
- measurement.description: In vivo antagonist activity against PAF-Induced paw edema in the mouse
- Format: functional
This listing pairs compounds with measured ED50.
Quick reminder: number only, in mg/kg, skip the unit.

Examples with answers:
Q. Entry under review: O=C(O)C(=O)O.O=C(c1cn(C(=O)OCc2ccccc2)c2ccccc12)[C@@H]1CSC(c2cccnc2)N1 (some centres undefined) . Reported ED50?
A. 1.79

Q. # query: ED50 of entry O=C(c1ccccc1)c1cccc(NC(=O)[C@@H]2CSC(c3cccnc3)N2)c1 (some centres undefined)
A. 1.73

Q. For the compound CN(C)C(=O)n1cc(C(=O)[C@@H]2CSC(c3cccnc3)N2)c2ccc(OCc3ccccc3)cc21.O=C(O)C(=O)O (some centres undefined) , what ED50 is on record?
A. 0.079

Q. I am curious: what ED50 value has been reported for CC(C)(C)OC(=O)n1cc(C(=O)[C@@H]2CSC(c3cccnc3)N2)c2ccccc21 (some centres undefined) ?
A. 0.372

Continuing:
Q. Endpoint output: ED50 of O=C(c1ccccc1)c1cccc(NC(=O)c2ccn3c2CSC3c2cccnc2)c1 (centres undefined) . Value?
A. 4.07

Q. Recorded ED50 of O=C(O)C(=O)O.O=C(c1c[nH]c2ccccc12)[C@@H]1CSC(c2cccnc2)N1 (some centres undefined) , please.
A. 5.32

Q. // query ED50 value for entry Cc1c(C(=O)[C@@H]2CSC(c3cccnc3)N2)c2ccccc2n1C(=O)OC(C)(C)C.O=C(O)C(=O)O (some centres undefined)
A. 0.873

Q. Endpoint output: ED50 of Cc1nnc2n1-c1sc(CCC(=O)N3CCOCC3)cc1C(c1ccccc1Cl)=NC2 [APAFANT] . Value?
A. 2.2

Q. Name the reported ED50 value associated with the compound CC(C)(C)OC(=O)n1cc(C(=O)[C@@H]2CSC(c3cccnc3)N2)c2ccc(OCc3ccccc3)cc21 (some centres undefined)
A. 1.3
